# subject of test: human Claudin-6 (CLDN6) (human) (UniProt P56747)
# test summary: FACS, 1.5 ug Ab, OVCA429 cells (2nd Ab only 885.77)
metric name: FACS fluorescence

Worked examples, 3 binders total:
[
  {
    "binder": "AB3-chim (antibody, V domains shown) VH: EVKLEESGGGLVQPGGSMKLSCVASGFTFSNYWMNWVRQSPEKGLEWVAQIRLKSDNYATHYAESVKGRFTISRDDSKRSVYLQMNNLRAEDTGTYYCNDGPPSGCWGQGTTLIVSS VL: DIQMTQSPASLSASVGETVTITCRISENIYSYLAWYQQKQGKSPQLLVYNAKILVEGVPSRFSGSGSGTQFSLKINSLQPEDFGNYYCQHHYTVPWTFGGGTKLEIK",
    "FACS fluorescence": 138000
  },
  {
    "binder": "AB3-4 (antibody, V domains shown, humanized) VH: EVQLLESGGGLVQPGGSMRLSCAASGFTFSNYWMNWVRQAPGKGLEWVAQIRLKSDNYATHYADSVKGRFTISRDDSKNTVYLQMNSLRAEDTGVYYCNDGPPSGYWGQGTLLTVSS VL: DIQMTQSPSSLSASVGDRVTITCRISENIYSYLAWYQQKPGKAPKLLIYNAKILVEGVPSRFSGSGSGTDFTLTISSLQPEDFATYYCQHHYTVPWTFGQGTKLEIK",
    "FACS fluorescence": 2960
  },
  {
    "binder": "AB1-5 (antibody, V domains shown, humanized) VH: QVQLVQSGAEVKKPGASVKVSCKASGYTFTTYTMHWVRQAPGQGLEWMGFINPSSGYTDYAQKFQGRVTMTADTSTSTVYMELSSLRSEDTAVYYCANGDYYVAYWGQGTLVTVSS VL: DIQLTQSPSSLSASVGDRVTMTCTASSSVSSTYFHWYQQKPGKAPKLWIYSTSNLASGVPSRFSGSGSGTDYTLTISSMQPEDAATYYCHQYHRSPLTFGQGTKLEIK",
    "FACS fluorescence": 54300
  }
]

Now for a further binder.
### Prompt Recorded FACS fluorescence of AB1-Chim (antibody, V domains shown) VH: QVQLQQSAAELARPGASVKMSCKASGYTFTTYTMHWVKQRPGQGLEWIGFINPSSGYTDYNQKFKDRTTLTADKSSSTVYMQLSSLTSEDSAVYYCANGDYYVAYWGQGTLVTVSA VL: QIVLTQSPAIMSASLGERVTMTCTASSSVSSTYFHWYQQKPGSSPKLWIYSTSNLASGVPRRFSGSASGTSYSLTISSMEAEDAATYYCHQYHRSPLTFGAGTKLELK , please.
### Response 177000
